# Tested on: RXF 393 renal
# Experiment notes: NCI-60 one-dose screen, 48 h (100 = growth as untreated, 0 = no growth, -100 = all killed)
# Details: 10 µM unless noted
The panel holds about 83,000 compounds, 20% with a hit somewhere; the sample as a whole holds those more often.
Attribute measured: growth (%)
Give bare numbers, in %.

- Molecule: "O=C1c2ccc3c4c(ccc(c24)C(=O)N1CCCCO)C(=O)N(CCCCO)C3=O"
  growth (%): 15.1
- Molecule: "COc1cc(/C=C2\\CN(C)C/C(=C\\c3cc(CN4CCCC4)c(O)c(OC)c3)C2=O)cc(CN2CCCC2)c1O"
  growth (%): 68.9

Exam item: Give recorded growth. CCCSC1=NC2C(N(CC)C(=O)N2CC)N1/N=C/C=C/c1ccccc1[N+](=O)[O-] (stereo not drawn)
Marked response: 0.465
